Tested on: MCF7
Experiment: normalised growth rate inhibition (GR value) relative to DMSO control (GR (1 = untreated growth, 0 = cytostasis, <0 = cytotoxic)); higher = less growth inhibition
Conditions: 3.33 µM; 72 h
Record form. Attribute: normalised growth rate inhibition. Fill in for each entry.

Prompt: Indicate its recorded normalised growth rate inhibition; the molecule in question is COc1cc2ncnc(Nc3ccc(F)c(Cl)c3)c2cc1OCCCN1CCOCC1
Completion: 1.03

Prompt: Indicate its recorded normalised growth rate inhibition; the molecule in question is CN1CCN(CCOc2cc(OC3CCOCC3)c3c(Nc4c(Cl)ccc5c4OCO5)ncnc3c2)CC1
Completion: 0.228

Prompt: Indicate its recorded normalised growth rate inhibition; the molecule in question is COc1cc(C(=O)NC2CCN(C)CC2)ccc1Nc1ncc2c(n1)N(C1CCCC1)CCC(=O)N2C(C)C
Completion: 0.758

Prompt: Indicate its recorded normalised growth rate inhibition; the molecule in question is CN(C)C/C=C/C(=O)Nc1cc2c(Nc3ccc(F)c(Cl)c3)ncnc2cc1O[C@H]1CCOC1
Completion: 0.603

Prompt: Indicate its recorded normalised growth rate inhibition; the molecule in question is NC1(c2ccc(-c3nc4ccn5c(=O)[nH]nc5c4cc3-c3ccccc3)cc2)CCC1
Completion: 0.176

Prompt: Indicate its recorded normalised growth rate inhibition; the molecule in question is COc1cc(C(=O)N2CCC(N3CCN(C)CC3)CC2)ccc1Nc1ncc2c(n1)N(C)c1ccccc1C(=O)N2C
Completion: 0.201

Prompt: Indicate its recorded normalised growth rate inhibition; the molecule in question is Nc1cccc(-c2cc3c(Oc4cccc(O)c4)ncnc3[nH]2)c1
Completion: 0.616

Prompt: Indicate its recorded normalised growth rate inhibition; the molecule in question is Cc1cn(-c2cc(NC(=O)c3ccc(C)c(Nc4nccc(-c5cccnc5)n4)c3)cc(C(F)(F)F)c2)cn1
Completion: 0.956

----------
Record form. Attribute: normalised growth rate inhibition. Fill in for each entry.
Test system: MCF7
Assay: normalised growth rate inhibition (GR value) relative to DMSO control (GR (1 = untreated growth, 0 = cytostasis, <0 = cytotoxic)); higher = less growth inhibition
Conditions: 3.33 µM; 72 h

Prompt: Indicate its recorded normalised growth rate inhibition; the molecule in question is COc1cc(OC)cc(-c2ccc3ncc4ccc(=O)n(-c5ccc(N6CCNCC6)c(C(F)(F)F)c5)c4c3c2)c1
Completion: 0.139

Prompt: Indicate its recorded normalised growth rate inhibition; the molecule in question is CC(C)(C)c1cnc(CSc2cnc(NC(=O)C3CCNCC3)s2)o1
Completion: -0.34

Prompt: Indicate its recorded normalised growth rate inhibition; the molecule in question is Nc1cc(C(F)(F)F)c(-c2cc(N3CCOCC3)nc(N3CCOCC3)n2)cn1
Completion: -0.188

Prompt: Indicate its recorded normalised growth rate inhibition; the molecule in question is C[C@@H](Oc1cc(-c2cnn(C3CCNCC3)c2)cnc1N)c1c(Cl)ccc(F)c1Cl
Completion: 0.0468

----------
Tested on: MCF7
Assay: normalised growth rate inhibition (GR value) relative to DMSO control (GR (1 = untreated growth, 0 = cytostasis, <0 = cytotoxic)); higher = less growth inhibition
Conditions: 1.11 µM; 72 h
ENDPOINT: normalised growth rate inhibition
// return just the number, without any unit appended

Prompt: Give reported normalised growth rate inhibition for CN(C)C/C=C/C(=O)Nc1cc2c(Nc3ccc(F)c(Cl)c3)ncnc2cc1O[C@H]1CCOC1 (MCF7)
Completion: 0.736

Prompt: Give reported normalised growth rate inhibition for CNC(=O)c1ccc(Nc2cc(Nc3ccccc3S(=O)(=O)C(C)C)c3cc[nH]c3n2)nc1 (MCF7)
Completion: 0.163

Prompt: Give reported normalised growth rate inhibition for CCC(=O)N1CCN(c2ccc(-n3c(=O)ccc4cnc5ccc(-c6cnc7ccccc7c6)cc5c43)cc2C(F)(F)F)CC1 (MCF7)
Completion: 0.0141

Prompt: Give reported normalised growth rate inhibition for NC1(c2ccc(-c3nc4ccn5c(=O)[nH]nc5c4cc3-c3ccccc3)cc2)CCC1 (MCF7)
Completion: 0.291

Prompt: Give reported normalised growth rate inhibition for Oc1cccc(-c2nc(N3CCOCC3)c3oc4ncccc4c3n2)c1 (MCF7)
Completion: -0.0473

Prompt: Give reported normalised growth rate inhibition for Cc1nc(Nc2ncc(C(=O)Nc3c(C)cccc3Cl)s2)cc(N2CCN(CCO)CC2)n1 (MCF7)
Completion: -0.0357

Prompt: Give reported normalised growth rate inhibition for Cn1cnc2c(F)c(Nc3ccc(Br)cc3Cl)c(C(=O)NOCCO)cc21 (MCF7)
Completion: 0.543

Prompt: Give reported normalised growth rate inhibition for c1ccc2c(-c3cnn4cc(-c5ccc(N6CCNCC6)cc5)cnc34)ccnc2c1 (MCF7)
Completion: 0.868
